Data provenance is the supplement of paper PMC10065799.

target: SHP2-C SH2; assay: SH2 binding enrichment of the phosphorylated peptide, bacterial display (enrichment ratio); higher = better substrate or ligand; peptides without Tyr show the background;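 note: peptide library displayed on the E. coli surface as eCPX fusions, selected cells deep-sequenced, score is each peptide's frequency after selection divided by its frequency in the input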
Note: every record was labeled by where its SH2 binding enrichment sits among bottom (below 0.8), middle (0.8 to below 1), top (1 or more)

Reference set (4 entries):
macromolecule_sequence	assigned_label
TVSSDYLHPQY [CCPG1_Y569_F566S]	middle
KWELRYMHSRV [ABCD1_Y281_G277W]	middle
TWSRSYRSDRL [CRYBB1_Y131_S129R]	bottom
CQAHGYFCQLI [STK11_Y156]	top

Now take the following sequence into account.
The entry to classify is QITQVYGFYHE [PPP2CA_Y127_D131H] ; which class holds it? top

----------
target: MERTK (UniProt Q12866); assay: phosphorylation enrichment, bacterial display (enrichment ratio); higher = better substrate or ligand; peptides without Tyr show the background
Sequence (Q12866 whole entry, looked up): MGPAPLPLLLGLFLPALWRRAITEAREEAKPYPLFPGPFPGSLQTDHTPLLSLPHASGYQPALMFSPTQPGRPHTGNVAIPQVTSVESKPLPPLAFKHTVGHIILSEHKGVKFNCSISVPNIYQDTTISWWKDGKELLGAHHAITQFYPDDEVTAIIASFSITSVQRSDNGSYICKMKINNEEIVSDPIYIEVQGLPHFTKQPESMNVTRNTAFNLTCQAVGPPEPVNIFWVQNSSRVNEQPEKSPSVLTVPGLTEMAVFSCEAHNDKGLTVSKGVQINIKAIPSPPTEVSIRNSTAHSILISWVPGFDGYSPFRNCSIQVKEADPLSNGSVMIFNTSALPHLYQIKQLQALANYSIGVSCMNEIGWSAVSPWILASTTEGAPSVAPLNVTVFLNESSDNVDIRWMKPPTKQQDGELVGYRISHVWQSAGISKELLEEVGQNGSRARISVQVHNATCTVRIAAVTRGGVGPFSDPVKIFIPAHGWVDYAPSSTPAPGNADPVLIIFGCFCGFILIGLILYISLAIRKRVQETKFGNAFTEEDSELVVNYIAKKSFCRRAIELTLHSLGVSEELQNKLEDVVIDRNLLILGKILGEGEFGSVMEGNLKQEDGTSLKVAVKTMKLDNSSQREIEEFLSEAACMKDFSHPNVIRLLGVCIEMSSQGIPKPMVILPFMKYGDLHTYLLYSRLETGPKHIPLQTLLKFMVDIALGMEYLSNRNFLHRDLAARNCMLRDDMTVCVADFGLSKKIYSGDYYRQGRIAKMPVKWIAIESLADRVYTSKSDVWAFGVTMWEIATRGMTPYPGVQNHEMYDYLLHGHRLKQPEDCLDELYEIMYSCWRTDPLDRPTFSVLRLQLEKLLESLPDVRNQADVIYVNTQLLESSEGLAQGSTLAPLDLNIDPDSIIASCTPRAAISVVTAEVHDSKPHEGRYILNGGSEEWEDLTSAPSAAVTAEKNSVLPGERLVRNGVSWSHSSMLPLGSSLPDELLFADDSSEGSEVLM
observation_type: phosphorylation enrichment
The reply should be a number, written without any unit.

macromolecule_sequence	assayed_system	result
EFGEVYKGTLK [EPHA2_Y628_M631T]	MERTK (UniProt Q12866)	0.362
FRQLPYCPSVE [CTNND2_Y508_Q507P_YF]	MERTK (UniProt Q12866)	0.486
KNNDGNIDYAE [MCFD2_Y135_Y135N]	MERTK (UniProt Q12866)	0.479
SNNYIYTTLGV [FAM83B_Y639_K640T]	MERTK (UniProt Q12866)	8.17
HPYNSYTYPRL [PAK5_Y316_S312P]	MERTK (UniProt Q12866)	2.57
IDDLEYLHSQG [STK11_Y166_G163D]	MERTK (UniProt Q12866)	0.572
KNAEKYAEEDW [HSPA9_Y568_R573W]	MERTK (UniProt Q12866)	0.533
LSTPEYGPKLK [TBC1D14_Y46_A43T]	MERTK (UniProt Q12866)	0.532
CQAHGYFCQLI [STK11_Y156]	MERTK (UniProt Q12866)	0.407
IFETDYFQKGG [INSR_Y1189_R1191Q_YF]	MERTK (UniProt Q12866)	0.386

Name the recorded phosphorylation enrichment of the item PASWTYVRWFD [PTDSS1_Y274] in your answer. 0.51

Find the measured phosphorylation enrichment of PVQDAYQKVVA [HBB_Y131_A129D] and report it. 0.379

// Input: AFGEVYEGQES [ALK_Y1131_V1135E] . Output its phosphorylation enrichment only. 0.438

----------
Below: a set of entries, each annotated with reported phosphorylation enrichment.
target: FGFR3 (UniProt P22607); assay: phosphorylation enrichment, bacterial display (enrichment ratio); higher = better substrate or ligand; peptides without Tyr show the background
Sequence (P22607 whole entry, looked up): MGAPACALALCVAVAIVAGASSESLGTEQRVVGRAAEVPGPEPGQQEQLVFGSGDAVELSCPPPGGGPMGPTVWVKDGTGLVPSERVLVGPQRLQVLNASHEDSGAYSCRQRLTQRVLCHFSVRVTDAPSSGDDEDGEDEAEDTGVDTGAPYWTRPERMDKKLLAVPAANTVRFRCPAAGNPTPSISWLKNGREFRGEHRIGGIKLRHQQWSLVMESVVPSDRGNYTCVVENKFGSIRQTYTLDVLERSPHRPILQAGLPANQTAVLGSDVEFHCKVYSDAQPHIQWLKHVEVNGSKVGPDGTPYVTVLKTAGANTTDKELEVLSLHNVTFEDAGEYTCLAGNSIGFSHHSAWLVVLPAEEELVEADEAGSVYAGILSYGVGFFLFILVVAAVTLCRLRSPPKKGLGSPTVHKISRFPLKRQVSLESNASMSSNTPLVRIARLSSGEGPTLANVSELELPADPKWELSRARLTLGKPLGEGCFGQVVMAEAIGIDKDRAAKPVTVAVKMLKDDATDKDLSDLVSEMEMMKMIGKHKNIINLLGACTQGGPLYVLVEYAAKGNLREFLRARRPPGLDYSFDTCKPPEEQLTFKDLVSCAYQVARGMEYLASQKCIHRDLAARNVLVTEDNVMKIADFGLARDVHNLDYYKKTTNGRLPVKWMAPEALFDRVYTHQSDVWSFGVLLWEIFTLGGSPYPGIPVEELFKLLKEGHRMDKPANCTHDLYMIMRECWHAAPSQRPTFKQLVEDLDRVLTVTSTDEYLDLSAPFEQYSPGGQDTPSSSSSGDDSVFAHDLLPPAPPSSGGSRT

Below are worked cases with known answers.
macromolecule_sequence	assayed_system	observation_type	result
SRGLAYPARPA [LEMD2_Y122]	FGFR3 (UniProt P22607)	phosphorylation enrichment	0.266
PSPMPYASCQM [FOXL2_Y215]	FGFR3 (UniProt P22607)	phosphorylation enrichment	0.625
WISNRYLDFSS [PRPH2_Y184]	FGFR3 (UniProt P22607)	phosphorylation enrichment	0.676
VLAHKYHGGGG [HBB_Y146_A141V]	FGFR3 (UniProt P22607)	phosphorylation enrichment	0.352
ALVLQYLRVPL [F9_Y371]	FGFR3 (UniProt P22607)	phosphorylation enrichment	0.662

Write down phosphorylation enrichment measured for item FQEKSYIKGTS [LCTL_Y331_L326F] 0.426

For FRQLPYCPSVE [CTNND2_Y508_Q507P_YF] , write its phosphorylation enrichment. 1.2

Give reported phosphorylation enrichment value for NGVSYYINLCQ [IGF2R_Y2025] 1.04

Quickly give me recorded phosphorylation enrichment for VPLATYMRIYK [RPL21_Y30] 0.687

Identify the reported phosphorylation enrichment for the following entry. DLRTGYSVPFG [TGM1_Y370_Y365D_YF] 0.644

Please give measured phosphorylation enrichment of the following entry: CHRQLYHKCTH [F12_Y58_Y53C] 0.576

Give the measured phosphorylation enrichment for EQKKFYNATKK [SCN5A_Y1495_M1498T_YF] 0.487

Provide only the value of recorded phosphorylation enrichment for FLAATYPTLGQ [NF1_Y2508_V2511L_YF] 0.572

Tell me phosphorylation enrichment reported for VFSTDCFRVGG [NTRK2_Y706_Y706C_YF] 0.602

Supply recorded phosphorylation enrichment for QKMFDYLKEKK [RYR2_Y3780_L3778F] here. 0.595

Using known records, supply phosphorylation enrichment for LNERHYGALIG [BPGM_Y92] 0.47

Return phosphorylation enrichment for the following sequence: VPHECYAKVFD [ALB_Y394_D389V] 0.727

Note down phosphorylation enrichment recorded for PQAVRYIYTID [DCX_Y103_G100A] 0.74

Retrieve phosphorylation enrichment measured for QITQVYGFYHE [PPP2CA_Y127_D131H] and print it. 0.753

Given CEAMEYQESKQ [BTK_Y511_L512Q] , respond with its phosphorylation enrichment. 1.08
